TGT: CYP3A4 (Homo sapiens, UniProt P08684)
Construct: purchased BD Bioscience 459100
Sequence (P08684 whole entry): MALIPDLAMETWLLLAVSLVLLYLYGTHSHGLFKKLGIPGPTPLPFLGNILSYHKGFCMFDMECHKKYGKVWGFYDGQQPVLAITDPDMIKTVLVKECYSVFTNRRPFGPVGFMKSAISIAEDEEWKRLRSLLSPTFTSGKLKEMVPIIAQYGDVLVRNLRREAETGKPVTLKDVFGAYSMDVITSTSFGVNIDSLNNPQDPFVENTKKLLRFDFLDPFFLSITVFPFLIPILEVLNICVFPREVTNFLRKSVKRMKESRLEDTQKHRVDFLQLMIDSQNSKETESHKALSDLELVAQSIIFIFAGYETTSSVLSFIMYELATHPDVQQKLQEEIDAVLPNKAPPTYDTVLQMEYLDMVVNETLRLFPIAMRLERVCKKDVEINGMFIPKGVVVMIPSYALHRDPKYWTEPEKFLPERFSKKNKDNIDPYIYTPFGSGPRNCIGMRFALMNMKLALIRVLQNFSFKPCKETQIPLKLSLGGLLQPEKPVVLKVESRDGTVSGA
ASSAY SUMMARY: In vitro CYP450 inhibition screen, fluorogenic assay, CYP3A4
Format: in vitro ADME
MEASUREMENT CONDITIONS: probe substrate 7-Benzyloxy-trifluoromethylcoumarin, average of two independent experiments, read-out: IC50 (μM) or % Inhibition at 20 μM, CYP450 3A4

{"CHEMICAL STRING": "COc1ccc2c(O[C@H]3CC[C@H]4C(=O)N(C)CCCC/C=C\\[C@@H]5C[C@@]5(C(=O)NS(=O)(=O)C5(C)CC5)NC(=O)[C@@H]4C3)cc(-c3nc(C(F)(F)F)cs3)nc2c1C", "IC50": "20 to 25 µM"}
{"CHEMICAL STRING": "C#Cc1csc(-c2cc(O[C@H]3CC[C@H]4C(=O)N(C)CCCC/C=C\\[C@@H]5C[C@@]5(C(=O)NS(=O)(=O)C5(C)CC5)NC(=O)[C@@H]4C3)c3ccc(OC)c(C)c3n2)n1", "IC50": "15 to 20 µM"}

----------
TGT: CYP2C8 (Homo sapiens)
Construct: purchased BD Bioscience
Sequence (P10632 whole entry): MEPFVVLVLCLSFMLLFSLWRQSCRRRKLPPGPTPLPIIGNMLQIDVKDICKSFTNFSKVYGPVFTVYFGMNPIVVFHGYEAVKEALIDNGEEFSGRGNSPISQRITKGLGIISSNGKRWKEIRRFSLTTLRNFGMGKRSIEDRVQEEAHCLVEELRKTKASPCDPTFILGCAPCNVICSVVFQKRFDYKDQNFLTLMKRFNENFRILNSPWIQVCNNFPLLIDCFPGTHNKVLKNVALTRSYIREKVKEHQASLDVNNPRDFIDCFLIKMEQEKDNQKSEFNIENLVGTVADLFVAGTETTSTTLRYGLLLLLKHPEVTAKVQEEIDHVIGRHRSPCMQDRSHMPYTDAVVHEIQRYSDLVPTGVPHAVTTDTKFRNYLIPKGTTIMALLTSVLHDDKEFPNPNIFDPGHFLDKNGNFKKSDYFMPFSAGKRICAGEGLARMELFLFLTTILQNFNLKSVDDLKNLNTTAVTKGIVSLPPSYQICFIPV
ASSAY SUMMARY: In vitro CYP450 inhibition screen, luminogenic assay, CYP2C8
Format: in vitro ADME
MEASUREMENT CONDITIONS: human, CYP2C8 enzyme (BD Bioscience), probe substrate Luciferin-ME, average of two independent experiments, read-out: IC50 (μM) or % Inhibition at 20 μM, CYP450 2C8

{"CHEMICAL STRING": "COc1ccc2c(O[C@H]3CC[C@H]4C(=O)N(C)CCCC/C=C\\[C@@H]5C[C@@]5(C(=O)NS(=O)(=O)C5(C)CC5)NC(=O)[C@@H]4C3)cc(-c3nc(C(F)(F)F)cs3)nc2c1C", "inhibition at 20 µM": "10 to 20%"}

----------
The following compounds are listed with their measured inhibition at 20 µM values.
TGT: CYP2C9 (Homo sapiens)
Construct: purchased BD Bioscience
Sequence (P11712 whole entry): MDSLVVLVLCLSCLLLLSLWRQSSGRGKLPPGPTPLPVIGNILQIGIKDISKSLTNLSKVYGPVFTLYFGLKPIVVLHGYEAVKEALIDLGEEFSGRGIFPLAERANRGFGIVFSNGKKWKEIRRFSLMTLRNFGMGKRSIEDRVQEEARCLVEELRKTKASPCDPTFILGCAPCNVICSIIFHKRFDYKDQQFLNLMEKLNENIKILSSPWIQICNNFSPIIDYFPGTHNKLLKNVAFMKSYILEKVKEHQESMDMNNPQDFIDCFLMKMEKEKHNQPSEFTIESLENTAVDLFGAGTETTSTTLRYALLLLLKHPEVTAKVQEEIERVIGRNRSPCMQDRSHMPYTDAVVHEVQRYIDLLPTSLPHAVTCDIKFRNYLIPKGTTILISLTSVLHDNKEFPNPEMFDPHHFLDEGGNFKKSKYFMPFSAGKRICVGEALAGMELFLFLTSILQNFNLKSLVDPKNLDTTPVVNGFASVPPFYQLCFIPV
ASSAY SUMMARY: In vitro CYP450 inhibition screen, luminogenic assay, CYP2C9
Format: in vitro ADME
MEASUREMENT CONDITIONS: CYP2C9 enzyme (BD Bioscience), probe substrate Luciferin-H, average of two independent experiments, read-out: IC50 (μM) or % Inhibition at 20 μM, CYP450 2C9

{"COMPOUND": "COc1ccc2c(O[C@H]3CC[C@H]4C(=O)N(C)CCCC/C=C\\[C@@H]5C[C@@]5(C(=O)NS(=O)(=O)C5(C)CC5)NC(=O)[C@@H]4C3)cc(-c3nc(C(F)(F)F)cs3)nc2c1C [Compound 51]", "inhibition at 20 µM": "20 to 30%"}
{"COMPOUND": "C#Cc1csc(-c2cc(O[C@H]3CC[C@H]4C(=O)N(C)CCCC/C=C\\[C@@H]5C[C@@]5(C(=O)NS(=O)(=O)C5(C)CC5)NC(=O)[C@@H]4C3)c3ccc(OC)c(C)c3n2)n1 [Compound 52]", "inhibition at 20 µM": "20 to 30%"}
